Origin of values: patent US9382222B2

# Assay Target: RORc ligand binding domain (Homo sapiens, UniProt P51449)
# Sequence (P51449 269-508 limits assumed): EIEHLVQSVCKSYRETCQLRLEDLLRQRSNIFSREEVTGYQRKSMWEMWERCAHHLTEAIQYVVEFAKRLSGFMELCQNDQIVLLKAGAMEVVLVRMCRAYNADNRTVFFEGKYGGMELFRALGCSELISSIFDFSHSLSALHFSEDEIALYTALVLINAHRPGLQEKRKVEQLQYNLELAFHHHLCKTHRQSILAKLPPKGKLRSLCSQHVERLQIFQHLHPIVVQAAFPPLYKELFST
pIC50: −log10 of the molar value.
Measured Endpoint: pIC50

Reference set (10 entries):
CC(C)CN(c1c(F)cccc1F)S(=O)(=O)c1ccc(OC2CCN(S(C)(=O)=O)CC2)cc1 ... 7.96
CN(C)S(=O)(=O)N1CCN(c2ccc(S(=O)(=O)N(Cc3ccccc3C(F)(F)F)C3CCC3)cc2)CC1 ... 7.60
CC(=O)N1CCN(c2ccc(S(=O)(=O)N(Cc3ccccc3C(F)(F)F)C3(C)CCC3)cc2)CC1 ... 7.15
CC(C)CN(c1ccc(F)cc1)S(=O)(=O)c1ccc(OC2CCN(S(C)(=O)=O)CC2)cc1 ... 7.80
CC(C)CN(Cc1ccccc1C(F)(F)F)S(=O)(=O)c1ccc(NC2CCN(S(C)(=O)=O)CC2)cc1 ... 8.22
CC(C)CN(Cc1ccccc1C(F)(F)F)S(=O)(=O)c1ccc(N2CCN(S(C)(=O)=O)CC2)cc1F ... 7.70
CC(C)CN(c1ccccc1Cl)S(=O)(=O)c1ccc(N2CCC(O)CC2)cc1 ... 5.89
CC(C)CN(c1cccc(Cl)c1)S(=O)(=O)c1ccc(NC2CCN(S(C)(=O)=O)CC2)cc1 ... 8.15
C=C(c1ccccc1)N(CC(C)C)S(=O)(=O)c1ccc(N2CCN(S(C)(=O)=O)CC2)cc1 ... 7.64
CC(C)CN(c1cccc(Cl)c1)S(=O)(=O)c1ccc(N[C@@H]2CCCN(S(C)(=O)=O)C2)cc1 ... 6.93

P. CC(C)CN(c1cccc(Cl)c1)S(=O)(=O)c1ccc(N[C@H]2CCCN(S(C)(=O)=O)C2)cc1
Q. CC(C)CN(c1ccccc1Cl)S(=O)(=O)c1ccc(N2CCN(S(C)(=O)=O)CC2)cc1
Task item: Lab note: record which item had the higher pIC50, P or Q . Write down the label of the entry you select.
Reply: Q
